Hey, just so you know, these numbers are from PubChem BioAssay AID1963863.

// reported viability, T/C per item
System: 931267-113-T-J1-PDC KRAS spheroid with HUVEC/MSC, viability;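 note: compound exposure lasted 7 days before the readout; 100% = DMSO vehicle control viability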
test name: Anticancer human tumor 931267-113-T-J1-PDC patient-derived colon adenocarcinoma cell line growth inhibition [KRAS2]
measurement conditions: second compound 0.316 µM; first compound 0.01 µM; stronger effect = lower value
# value in %; strip the unit string

Would you please look over these solved cases?
{"columns": ["compound", "viability, T/C / %"],
 "data": [
  ["CC(=O)OC12COC1CC(O)C1(C)C(=O)C(O)C3=C(C)C(OC(=O)C(O)C(NC(=O)OC(C)(C)C)c4ccccc4)CC(O)(C(OC(=O)c4ccccc4)C21)C3(C)C (stereo unspecified) + C=CC(=O)N1CCN(c2nc(OCC3CCCN3C)nc3c2CCN(c2cccc4cccc(C)c24)C3)CC1CC#N", 126],
  ["CC(C)n1nc(-c2ccc3oc(N)nc3c2)c2c(N)ncnc21 + CNCc1ccccc1-c1csc(C(C)Nc2nc(C)nc3cc(OC)c(OC)cc23)c1", 38.7],
  ["CC(=O)Nc1cccc(-n2c(=O)n(C3CC3)c(=O)c3c(Nc4ccc(I)cc4F)n(C)c(=O)c(C)c32)c1 + CC1OCC2(CCN(c3cnc(Sc4ccnc(N)c4Cl)c(N)n3)CC2)C1N", 51.7]
]}

For Cn1ncnc1[C@H]1c2n[nH]c(=O)c3cc(F)cc(c23)N[C@@H]1c1ccc(F)cc1 + CNCc1ccccc1-c1csc(C(C)Nc2nc(C)nc3cc(OC)c(OC)cc23)c1 the compound record lists viability, T/C as 59.9

For CCN1CCN(Cc2ccc(Nc3ncc(F)c(-c4cc(F)c5nc(C)n(C(C)C)c5c4)n3)nc2)CC1 + C=CC(=O)N1CCN(c2nc(=O)n(-c3c(C)ccnc3C(C)C)c3nc(-c4c(O)cccc4F)c(F)cc23)C(C)C1 the compound record lists viability, T/C as 88.3

For CC(=O)OC12COC1CC(O)C1(C)C(=O)C(O)C3=C(C)C(OC(=O)C(O)C(NC(=O)OC(C)(C)C)c4ccccc4)CC(O)(C(OC(=O)c4ccccc4)C21)C3(C)C (stereo unspecified) + COc1cc2nc(C)nc(NC(C)c3cc(N)cc(C(F)(F)F)c3)c2cc1OC1CCOC1 the compound record lists viability, T/C as 88
